Cited source for all entries: patent US20230416362A1

# EC50 annotations
MEASURED_TARGET: T1, hTIGIT (ELISA of Table 7) (human, UniProt Q495A1 22-141, limits assumed)
T1 construct: whole entry named; also called human TIGIT
T1 chain: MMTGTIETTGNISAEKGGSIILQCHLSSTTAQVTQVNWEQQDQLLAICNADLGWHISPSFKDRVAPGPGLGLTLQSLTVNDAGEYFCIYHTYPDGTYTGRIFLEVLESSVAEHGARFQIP
EXPERIMENT_NOTES: ELISA binding
ASSAY_READOUT: EC50 (nM)

• 1G3 mIgG2a-DLE (antibody, V domains shown, Mouse IgG2a isotype with DLE (S239D/A330L/I332E) mutations at the Fc region) VH: DIQLVQSGGGLVKPGGSLRLSCAASGYTFTNYWIGWVRQTPGKGLEWVGDIYPGSSFTNSNEKFKGRFTISADKSKNTAYLQMNSLRAEDTAVYYCARDMVGYWYFDVWGQGTLVTVSS VL: DIVLTQSPATLSASLGERATLSCSASSSVSYIHWYQQKPGQAPKLLIYTTSNLASGVPSRFSGSGSGTDFTLTISSLEAEDFATYYCHQWSRYPTFGGGTKLEIK = 9.4
• 3H2 mIgG2a-DLE (antibody, V domains shown, Mouse IgG2a isotype with DLE (S239D/A330L/I332E) mutations at the Fc region) VH: DIQLVQSGGGLVKPGGSLRLSCAASGYTFTNYWIGWVRQTPGKGLEWVGDIYPGSSFTNSNEKFKGRFTISADKSKNTAYLQMNSLRAEDTAVYYCARIRLGYWYFDVWGQGTLVTVSS VL: DIVLTQSPATLSASLGERATLSCSASSSVSYIHWYQQKPGQAPKLLIYTTSNLASGVPSRFSGSGSGTDFTLTISSLEAEDFATYYCHQWSRYPTFGGGTKLEIK = 0.9
• 2F1 mIgG2a-DLE (antibody, V domains shown, Mouse IgG2a isotype with DLE (S239D/A330L/I332E) mutations at the Fc region) VH: DIQLVQSGGGLVKPGGSLRLSCAASGYTFTNYWIGWVRQTPGKGLEWVGDIYPGSSFTNSNEKFKGRFTISADKSKNTAYLQMNSLRAEDTAVYYCARVIVGYWYFDVWGQGTLVTVSS VL: DIVLTQSPATLSASLGERATLSCSASSSVSYIHWYQQKPGQAPKLLIYTTSNLASGVPSRFSGSGSGTDFTLTISSLEAEDFATYYCHQWSRYPTFGGGTKLEIK = 464
